src = patent US10696655B2

ASSAY TARGET: CBP (Homo sapiens (Human))
Sequence (Q92793 whole entry): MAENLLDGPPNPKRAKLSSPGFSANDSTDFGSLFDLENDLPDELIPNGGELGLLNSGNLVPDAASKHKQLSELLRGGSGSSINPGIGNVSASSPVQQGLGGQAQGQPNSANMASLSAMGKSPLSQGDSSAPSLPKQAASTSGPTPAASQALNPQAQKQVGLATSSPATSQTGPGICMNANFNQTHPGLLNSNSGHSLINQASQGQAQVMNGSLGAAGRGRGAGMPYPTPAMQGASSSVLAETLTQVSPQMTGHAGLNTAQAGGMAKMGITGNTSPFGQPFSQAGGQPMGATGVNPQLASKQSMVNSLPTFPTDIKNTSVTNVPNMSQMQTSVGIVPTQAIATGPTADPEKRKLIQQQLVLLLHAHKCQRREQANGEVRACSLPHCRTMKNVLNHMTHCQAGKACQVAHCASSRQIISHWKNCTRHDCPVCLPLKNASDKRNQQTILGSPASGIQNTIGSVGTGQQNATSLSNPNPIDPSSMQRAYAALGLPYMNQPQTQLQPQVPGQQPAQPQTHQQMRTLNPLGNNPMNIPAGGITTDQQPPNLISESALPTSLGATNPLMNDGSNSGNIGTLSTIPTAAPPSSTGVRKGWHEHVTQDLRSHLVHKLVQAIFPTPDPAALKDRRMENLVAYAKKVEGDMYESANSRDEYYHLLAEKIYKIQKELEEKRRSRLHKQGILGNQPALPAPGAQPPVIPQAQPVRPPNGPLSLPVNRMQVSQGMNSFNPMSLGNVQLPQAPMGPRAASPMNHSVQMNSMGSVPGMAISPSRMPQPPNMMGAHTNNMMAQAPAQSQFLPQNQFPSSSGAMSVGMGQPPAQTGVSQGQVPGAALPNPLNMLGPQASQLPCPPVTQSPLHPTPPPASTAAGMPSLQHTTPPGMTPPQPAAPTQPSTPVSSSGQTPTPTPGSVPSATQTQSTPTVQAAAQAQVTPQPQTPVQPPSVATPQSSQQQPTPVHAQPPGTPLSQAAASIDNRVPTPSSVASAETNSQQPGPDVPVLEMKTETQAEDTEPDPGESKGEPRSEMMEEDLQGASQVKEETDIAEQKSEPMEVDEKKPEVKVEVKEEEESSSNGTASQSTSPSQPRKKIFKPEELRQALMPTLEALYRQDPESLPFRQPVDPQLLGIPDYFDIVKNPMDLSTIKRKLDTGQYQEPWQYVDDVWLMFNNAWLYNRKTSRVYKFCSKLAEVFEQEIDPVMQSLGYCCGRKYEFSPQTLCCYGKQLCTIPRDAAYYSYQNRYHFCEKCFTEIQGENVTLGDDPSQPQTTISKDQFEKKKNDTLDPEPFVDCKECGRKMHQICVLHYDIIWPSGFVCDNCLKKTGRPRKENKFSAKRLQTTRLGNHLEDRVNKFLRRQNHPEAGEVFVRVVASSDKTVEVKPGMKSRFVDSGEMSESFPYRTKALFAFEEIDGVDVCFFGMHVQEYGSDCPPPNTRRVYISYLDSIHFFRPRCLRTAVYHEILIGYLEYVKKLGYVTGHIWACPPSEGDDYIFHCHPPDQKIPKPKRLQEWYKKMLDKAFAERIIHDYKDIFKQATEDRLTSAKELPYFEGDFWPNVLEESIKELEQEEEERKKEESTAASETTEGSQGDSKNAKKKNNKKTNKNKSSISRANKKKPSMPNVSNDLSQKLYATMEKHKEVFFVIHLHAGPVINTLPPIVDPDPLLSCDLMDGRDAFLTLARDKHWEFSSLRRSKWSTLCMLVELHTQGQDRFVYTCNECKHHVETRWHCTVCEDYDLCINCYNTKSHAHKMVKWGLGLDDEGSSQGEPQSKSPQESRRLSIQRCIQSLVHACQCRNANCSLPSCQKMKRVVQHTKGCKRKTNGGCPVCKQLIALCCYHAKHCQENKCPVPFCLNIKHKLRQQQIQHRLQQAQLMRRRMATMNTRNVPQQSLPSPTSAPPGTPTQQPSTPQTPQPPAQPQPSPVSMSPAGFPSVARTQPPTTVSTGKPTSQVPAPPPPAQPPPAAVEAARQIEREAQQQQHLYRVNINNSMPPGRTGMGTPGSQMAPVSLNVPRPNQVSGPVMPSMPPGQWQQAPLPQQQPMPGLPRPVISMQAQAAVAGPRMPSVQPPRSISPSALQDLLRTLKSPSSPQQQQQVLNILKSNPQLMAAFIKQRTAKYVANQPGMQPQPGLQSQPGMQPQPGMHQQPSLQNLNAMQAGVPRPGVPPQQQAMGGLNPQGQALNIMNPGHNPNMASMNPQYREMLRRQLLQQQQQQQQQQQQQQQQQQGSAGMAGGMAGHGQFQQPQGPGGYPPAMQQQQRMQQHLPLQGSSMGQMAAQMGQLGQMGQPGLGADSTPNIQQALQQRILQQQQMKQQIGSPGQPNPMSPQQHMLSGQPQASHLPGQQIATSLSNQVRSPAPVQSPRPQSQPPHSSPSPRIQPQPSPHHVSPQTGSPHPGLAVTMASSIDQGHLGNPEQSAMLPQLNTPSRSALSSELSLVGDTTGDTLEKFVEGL
PROCEDURE DETAILS: CBP TR-FRET binding assay
SETUP CONDITIONS: His/Flag tagged CBP 4 nM, biotin-ligand 60 nM; read-out: CBP HTRF IC50
Catalogue of pIC50 readings, one per entry.
The scale used: pIC50 is minus the common logarithm of the concentration in molar units.

Would you please look over these solved cases?
{"MOLECULE": "CNC(=O)c1n[nH]c2ccc(N3CCCc4cc(-c5cnn(C)c5)c(C(F)F)cc43)nc12 [Example 71]", "pIC50": 6.73}
{"MOLECULE": "CNC(=O)N1CCOc2ccc(-c3cccc4cnn(C)c34)cc2C1 [Example 8]", "pIC50": 6.40}
{"MOLECULE": "CN1C(=O)C(C)(C)c2ccc(N3CCCc4cc(-c5cnn(C)c5)c(C(F)F)cc43)cc21 [Example 20]", "pIC50": 5.76}
{"MOLECULE": "CNC(=O)c1cn(C)nc1C(=O)Nc1cccc2cc(-c3cnn(C)c3)ncc12 [Example 124]", "pIC50": 7.85}
{"MOLECULE": "CNC(=O)c1c[nH]c2ccc(N3CCCc4cc(-c5cnn(C)c5)c(C(F)F)cc43)cc12 [Example 52]", "pIC50": 8.05}
{"MOLECULE": "CNC(=O)N1CCOc2ccc(-c3c(F)ccc4[nH]ccc34)cc2C1 [Example 12]", "pIC50": 7.23}
{"MOLECULE": "CNC(=O)c1c[nH]c2ccc(N3CCCc4cc(-c5cnn(C)c5)c(C(F)F)cc43)nc12 [Example 65]", "pIC50": 8.30}
{"MOLECULE": "Cn1cc(-c2cc3c(cc2C(F)F)N(c2cnc4c(c2)n(C)c(=O)n4C)CCC3)cn1 [Example 25]", "pIC50": 7.42}
{"MOLECULE": "CCc1cc(N2CCCc3cc(-c4cnn(C)c4)c(C(F)F)cc32)cc2c1n(C)c(=O)n2C [Example 37]", "pIC50": 7.96}
{"MOLECULE": "CNC(=O)N1CCN(C)c2ccc(-c3ccccc3C)cc2C1 [Example 85]", "pIC50": 6.35}

pIC50 reported for this molecule Cn1cc(-c2cc3c(cc2C(F)F)N(c2cnc4[nH]cc(-c5cnn(C)c5)c4n2)CCC3)cn1 [Example 74] : 6.97

Value of pIC50 reported for the molecule CNC(=O)c1cn(C)c2ccc(N3CCCc4cc(-c5cnn(C)c5)c(C(F)F)cc43)cc12 [Example 50] is 8.05

---

# IC50 per record follows
ASSAY TARGET: CBP (Homo sapiens (Human))
Just so you know, I need the unit written after the number.

{"COMPOUND STRUCTURE STRING": "CNC(=O)N1CCOc2ccc(-c3cccc4nc(-c5ccc(OC)cc5)cn34)cc2C1", "IC50": "81 nM"}
{"COMPOUND STRUCTURE STRING": "CNC(=O)c1ccc2cncc(N3CCCc4cc(-c5cnn(C)c5)c(C(F)F)cc43)c2c1", "IC50": "34 nM"}
{"COMPOUND STRUCTURE STRING": "CC(=O)N1CCc2c(cc(-c3cccc4cc(-c5cnn(C)c5)ncc34)c(=O)n2C)C1", "IC50": "258 nM"}
{"COMPOUND STRUCTURE STRING": "Cn1cc(-c2cc3c(cc2C(F)F)N(c2cc(C4CCC4)c4c(c2)n(C)c(=O)n4C)CCC3)cn1", "IC50": "12 nM"}
{"COMPOUND STRUCTURE STRING": "CNC(=O)c1ccc2nccc(N3CCCc4cc(-c5cnn(C)c5)c(C(F)F)cc43)c2c1", "IC50": "34 nM"}

Field IC50 (system: CBP (Homo sapiens (Human))) for entry CNC(=O)N1CCNc2ccc(N3CCCc4cc(-c5cnn(C)c5)c(C(F)F)cc43)cc2C1 = 8 nM

Observed IC50 on CBP (Homo sapiens (Human)), entry CN1C(=O)Cc2ccc(N3CCCc4cc(-c5cnn(C)c5)c(C(F)F)cc43)cc21 , equals 32 nM

---

Measurement record for CBP (Homo sapiens (Human), UniProt Q92793); quantity recorded: IC50.

Completed entries (count: 5):
{"COMPOUND": "CNC(=O)N1CCOc2ccc(-c3cccc4[nH]ncc34)cc2C1", "IC50": "102 nM"}
{"COMPOUND": "C[C@H]1Nc2c(cccc2N2CCCc3cc(-c4cnn(C)c4)ccc32)NC1=O", "IC50": "325 nM"}
{"COMPOUND": "CNC(=O)c1c[nH]c2c(C)nc(N3CCCc4cc(-c5cnn(C)c5)c(C(F)F)cc43)cc12", "IC50": "2 nM"}
{"COMPOUND": "CC(C)c1cc(N2CCCc3cc(-c4cnn(C)c4)c(C(F)F)cc32)cc2c1n(C)c(=O)n2C", "IC50": "9 nM"}
{"COMPOUND": "CC1C(=O)N(C)c2cc(N3CCCc4cc(-c5cnn(C)c5)c(C(F)F)cc43)ccc21 (stereo in doubt)", "IC50": "95 nM"}

The compound listed as CCn1cc(C(=O)NC)c2cc(N3CCCc4cc(-c5cnn(C)c5)c(C(F)F)cc43)ccc21 shows IC50 equal to 27 nM

Value of IC50 reported for the compound CNC(=O)c1cn(C)c2c(C(C)C)cc(N3CCCc4cc(-c5cnn(C)c5)c(C(F)F)cc43)cc12 is 31 nM

Noted for C#Cc1cc2c(cc1N1CCCc3cc(-c4cnn(C)c4)c(C(F)F)cc31)n(C)c(=O)n2C : its IC50 reads 21 nM

---

As an illustration, consider measured IC50 for compounds on CBP (Homo sapiens (Human)).
Write the answer as a number in µM, unit excluded.

Reported IC50 for Cn1cc(-c2cc3c(cc2C(F)F)N(c2cc(C4CC4)c4c(c2)n(C)c(=O)n4C)CCC3)cn1 [Example 38] was 0.016

Cn1cc(-c2cc3c(cc2C(F)F)N(c2cc(N4CCCC4)c4c(c2)n(C)c(=O)n4C)CCC3)cn1 [Example 43] has a reported IC50 of 0.006

For record CNC(=O)N1CCOc2ccc(-c3cc(C)ccc3C)cc2C1 [Example 7] the listed IC50 is 0.273

IC50 in this record for CNC(=O)N1CCOc2ccc(-c3nccc4ccccc34)cc2C1 [Example 1] : 0.187

---

ASSAY TARGET: UniProt Q92793
PROCEDURE DETAILS: CBP TR-FRET binding assay;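 note: displacement of a biotinylated small-molecule ligand from purified recombinant CBP read by TR-FRET, DMSO-only wells as control, IC50 from nonlinear curve fit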
SETUP CONDITIONS: His/Flag tagged CBP 4 nM, biotin-ligand 60 nM; read-out: CBP HTRF IC50
Each item that follows carries a reported IC50.
Hi! Could you send only the number? It should be in nM, unit omitted.

Here's what some known entries look like.
{"COMPOUND STRUCTURE STRING": "CNC(=O)N1CCOc2ccc(-c3cccc4cn[nH]c34)cc2C1", "RECORDED RESULT": 391}
{"COMPOUND STRUCTURE STRING": "CNC(=O)c1cn(C)c2cnc(N3CCCc4cc(-c5cnn(C)c5)c(C(F)F)cc43)cc12", "RECORDED RESULT": 6}
{"COMPOUND STRUCTURE STRING": "CN1C(=O)C(=O)c2ccc(N3CCCc4cc(-c5cnn(C)c5)c(C(F)F)cc43)cc21", "RECORDED RESULT": 78}

Short answer for Cn1cc(-c2cc3c(cc2C(F)F)N(c2cc(Cl)c4c(c2)n(C)c(=O)n4C)CCC3)cn1 : IC50 was 42

---

ASSAY TARGET: CBP (Homo sapiens (Human))
ENDPOINT: pIC50
Expect pIC50 as a plain number equal to -log10 of the molar concentration.

{"COMPOUND": "CCCc1cc(N2CCCc3cc(-c4cnn(C)c4)c(C(F)F)cc32)cc2c1n(C)c(=O)n2C", "pIC50": 7.72}
{"COMPOUND": "COC(=O)c1ccc2nccc(N3CCCc4cc(-c5cnn(C)c5)ccc43)c2c1", "pIC50": 6.70}
{"COMPOUND": "CNC(=O)c1cn(C)c2ccc(N3CCCc4cc(-c5cnn(C)c5)c(C(F)F)cc43)c(F)c12", "pIC50": 8.40}
{"COMPOUND": "CN(C)c1cc(N2CCCc3cc(-c4cnn(C)c4)c(C(F)F)cc32)cc2c1n(C)c(=O)n2C", "pIC50": 8.30}

Test item CC(=O)N1CCOc2ccc(N3CCCc4cc(-c5cnn(C)c5)c(C(F)F)cc43)cc2C1 ; CBP (Homo sapiens (Human)); reported pIC50 was 7.49

pIC50 on CBP (Homo sapiens (Human)) for CNC(=O)c1c[nH]c2cnc(N3CCCc4cc(-c5cnn(C)c5)c(C(F)F)cc43)nc12 is 7.74

Let me check: CNc1cc(N2CCCc3cc(-c4cnn(C)c4)c(C(F)F)cc32)cc2c1n(C)c(=O)n2C , system CBP (Homo sapiens (Human)), measured pIC50 is 7.72

Hey, CBP (Homo sapiens (Human)) data for CN1Cc2c(cccc2N2CCCc3cc(-c4cnn(C)c4)c(C(F)F)cc32)NC1=O : pIC50 came out at 7.59

Observed pIC50, CBP (Homo sapiens (Human)), Cn1cc(-c2cc3c(cc2C(F)F)N(c2cc(C4=CC[S+]([O-])CC4)c4c(c2)n(C)c(=O)n4C)CCC3)cn1 (centres unmarked) : 8.40
